tested on: stage 2 neural progenitors; assay: HD-DoE another 12-factor model for stage 3 recipe (FIG. 24, 25, 30); format: cell-based, human; conditions: dynamic profile, 12 effectors
measurement-type: impact on expression of SOX6

INSERT INTO assay_data (structure_string, obs_value) VALUES
  ('C[C@H]1COCCN1c1cc(C2(S(=O)(=O)C3CC3)CC2)nc(-c2ccc(NC(=S)NCCO)cc2)n1', 'positive impact'),
  ('O=C(NOC[C@H](O)CO)c1ccc(F)c(F)c1Nc1ccc(I)cc1F', 'positive impact'),
  ('C[C@H](NC(=O)Cc1cc(F)cc(F)c1)C(=O)N[C@@H]1C(=O)N(C)c2ccccc2-c2ccccc21', 'positive impact');

Source listed as patent US20240117303A1.
